[
  {
    "molecule": "O=C(O)c1cc(F)c(C(F)(F)F)cc1[N+](=O)[O-]",
    "melting point": "142 to 145 °C"
  },
  {
    "molecule": "COCCOc1cc2c(Nc3ccc(Sc4nccn4C)c(Cl)c3)c(C#N)cnc2cc1F",
    "melting point": "265 to 270 °C"
  },
  {
    "molecule": "NC(=O)N(O)CCNC(=O)c1ccc(Cl)cc1",
    "melting point": "172 to 173 °C"
  },
  {
    "molecule": "Cn1c(-c2ccc(-c3ccccn3)cc2)c(C(=O)O)c(=O)n1-c1ccc(C#N)cc1",
    "melting point": "155 to 166 °C"
  },
  {
    "molecule": "CNC(=O)c1cc(OC)c(-c2ccc(C[C@H](NC(=O)c3c(Cl)cccc3Cl)C(=O)O)cc2)c(OC)c1",
    "melting point": "251 to 252 °C"
  },
  {
    "molecule": "C=CC(=O)OCc1cn(-c2ccccc2)nn1",
    "melting point": "55 to 56 °C"
  },
  {
    "molecule": "Cc1c([N+](=O)[O-])ccc2c1ccn2C",
    "melting point": "120 to 123 °C"
  },
  {
    "molecule": "Cc1nc(-c2cccnc2)sc1-c1ccnc(Nc2ccc3c(c2)OCO3)n1",
    "melting point": "187 to 188 °C"
  },
  {
    "molecule": "CCOC(=O)c1ccc(CCN(C)CCCC(C#N)(c2ccc(OC)c(OC)c2)C(C)C)cc1 (configuration not stated)",
    "melting point": "111 to 112 °C"
  },
  {
    "molecule": "CNC(=O)C(C)Nc1nc(-c2ccc(F)c3ccccc23)cc(C(C)C)n1 (configuration not stated)",
    "melting point": "141 to 142 °C"
  },
  {
    "molecule": "CCCCSc1c2sc3ccccc3nc-2cc(C)c1=O",
    "melting point": "97 °C"
  },
  {
    "molecule": "CN(C)CCCOc1ccc(-c2nnc(CSCCOc3ccccc3)n2-c2ccccc2)cc1",
    "melting point": "120 to 123 °C"
  },
  {
    "molecule": "COc1cc(CCCN2CCc3cc(OC)c(OC)cc3C2)ccc1NC(=O)c1cccc2c(=O)c3c(OC)ccc(OC)c3[nH]c12",
    "melting point": "140 °C"
  },
  {
    "molecule": "NC(=O)C(N)CC(=O)N[C@@H]1CN2C(=O)N(c3cc(Cl)nc(Cl)c3)C(=O)[C@@]2(Cc2ccc(OC(F)(F)F)cc2)C1 (some centres not stated)",
    "melting point": "108 °C"
  },
  {
    "molecule": "CCOC(=O)CN(c1ccncc1F)n1ccc2ccccc21",
    "melting point": "86 to 87 °C"
  },
  {
    "molecule": "CCCc1c(OCc2ccccc2)ccc2c1OC(CCC(=O)O)(CCC(=O)O)CC2=O",
    "melting point": "202 to 205 °C"
  },
  {
    "molecule": "COC(=O)NC(=O)c1ccc(C=NO)cc1C",
    "melting point": "141 to 143 °C"
  },
  {
    "molecule": "CCOCc1nc2c(N)nc(C)c(C)c2n1CCOCCCc1cccnc1",
    "melting point": "78 to 78.5 °C"
  },
  {
    "molecule": "COC(=O)c1nc(N)sc1-c1ccc(SC)cc1",
    "melting point": "184 to 185 °C"
  },
  {
    "molecule": "CC(C)(C)[Si](C)(C)O[C@@H](CCCC(=O)N1C(=O)OC[C@@H]1Cc1ccccc1)c1ccc(F)cc1",
    "melting point": "87.6 °C"
  },
  {
    "molecule": "CC[C@@H]1N(c2ccc(C#N)c(Cl)c2)C(=O)C[C@]1(C)O",
    "melting point": "144 to 146 °C"
  },
  {
    "molecule": "Cc1ccc(-c2c(C#N)n(C)c(=O)c3cnccc23)cc1",
    "melting point": "201 to 202 °C"
  }
]

----------
[
  {
    "molecule": "COc1cc(Cl)nc(Nc2ccccc2)n1",
    "melting point": "101 to 103 °C"
  },
  {
    "molecule": "CN1CCC(OC(c2cccc(SCCNC(=N)NC#N)c2)c2nc3ccccc3[nH]2)CC1 (stereo unspecified)",
    "melting point": "65 °C"
  },
  {
    "molecule": "O=C1c2ccccc2COc2ccc(CCO)cc21",
    "melting point": "78 to 81.5 °C"
  },
  {
    "molecule": "Cc1ccc(-n2c3ccc(C)cc3c3cc(-n4ccnc4-c4nccn4-c4ccc5c(c4)c4cc(C)ccc4n5-c4ccc(C)cc4)ccc32)cc1",
    "melting point": "208 to 214 °C"
  },
  {
    "molecule": "Cc1cc(-c2ccc(C(F)(F)F)cc2)cnc1N",
    "melting point": "74 °C"
  },
  {
    "molecule": "CCOC(=O)COc1cc(F)ccc1C(=O)NCc1cccc([N+](=O)[O-])c1",
    "melting point": "78 to 80 °C"
  }
]

----------
value kind: melting point

[
  {
    "compound": "Cc1ccc(Nc2cc(-c3ccccc3)nc(-c3ccccc3)c2)cc1",
    "value kind": "melting point",
    "measurement": "125 °C"
  },
  {
    "compound": "COC(=O)c1nc2n(n1)-c1ccccc1N(c1cccc(C)c1C)C2",
    "value kind": "melting point",
    "measurement": "170 to 172 °C"
  },
  {
    "compound": "C#Cc1ccnc(-c2ccc(-c3cc(C#C)ccn3)c([N+](=O)[O-])c2)c1",
    "value kind": "melting point",
    "measurement": "178 to 180 °C"
  },
  {
    "compound": "CCCCC1COC(=S)N1 (stereo not drawn)",
    "value kind": "melting point",
    "measurement": "71 to 72 °C"
  },
  {
    "compound": "CC(C)c1ccc(CCNc2ncnc3c(F)cccc23)cc1",
    "value kind": "melting point",
    "measurement": "170 to 172 °C"
  },
  {
    "compound": "CCc1cccc(C)c1CNc1nc(C(=O)N2CCCC2)cn2c(C)c(C)nc12",
    "value kind": "melting point",
    "measurement": "197 °C"
  },
  {
    "compound": "Cc1ccc(OCCCCCCN2CCN(c3nccs3)CC2)cc1",
    "value kind": "melting point",
    "measurement": "37 to 39 °C"
  },
  {
    "compound": "CCOC(=O)C(C)(C)CCCCOc1cc(C)c(N=Nc2ccc([N+](=O)[O-])cc2)c(C)c1",
    "value kind": "melting point",
    "measurement": "89 to 90 °C"
  },
  {
    "compound": "Oc1ccc2c(c1)[C@H](O)[C@H](Cc1cccnc1)CO2 (relative stereo)",
    "value kind": "melting point",
    "measurement": "144 to 147 °C"
  },
  {
    "compound": "CCCCc1nc2c(N)nc(C)c(C)c2n1CCCCCS(N)(=O)=O",
    "value kind": "melting point",
    "measurement": "130 °C"
  },
  {
    "compound": "Cc1ccc(Cc2cc(C)c(C)c(=O)n2O)c(C)c1",
    "value kind": "melting point",
    "measurement": "141 °C"
  },
  {
    "compound": "Nc1ncccc1C(=O)NCC1CCN(C[C@H]2COc3ccc4[nH]ccc4c3O2)CC1",
    "value kind": "melting point",
    "measurement": "104 to 106 °C"
  },
  {
    "compound": "CC(C)(C)C1(C)C(=O)N=C2c3ccccc3C(=O)N21 (stereo not drawn)",
    "value kind": "melting point",
    "measurement": "136 to 138 °C"
  },
  {
    "compound": "C=CC(=O)NC(C)(C)c1ccc(CC(=O)OCCC)cc1",
    "value kind": "melting point",
    "measurement": "71 to 72 °C"
  },
  {
    "compound": "Nc1ccc(S(=O)(=O)CCCO)cc1",
    "value kind": "melting point",
    "measurement": "99 to 102 °C"
  },
  {
    "compound": "CCc1nn2c(N3CCN(C)CC3)cc(N3CCOCC3)nc2c1S(=O)(=O)c1ccccc1",
    "value kind": "melting point",
    "measurement": "> 250 °C"
  },
  {
    "compound": "Cc1ccc([C@@H]2c3c(C)c(N4C(=O)CC(c5ccccc5)CC4=O)c(C)c(C)c3OC2(C)C)cc1",
    "value kind": "melting point",
    "measurement": "118 to 122 °C"
  },
  {
    "compound": "CC=C(NC(=O)C1CC1(CC)CC)C(=O)O (stereo not drawn)",
    "value kind": "melting point",
    "measurement": "129 to 130 °C"
  },
  {
    "compound": "Cc1cc(N2NCCNC2=O)cc(Cl)c1Cc1ccc(Cl)cc1",
    "value kind": "melting point",
    "measurement": "197 to 198 °C"
  },
  {
    "compound": "CCC1c2ccc(C=O)n2-c2ccc(F)cc2N1S(=O)(=O)c1ccc(O)c(C)c1 (stereo not drawn)",
    "value kind": "melting point",
    "measurement": "192 to 194 °C"
  },
  {
    "compound": "CN1CCCC1=Nc1ncnc2c1ncn2[C@H]1C=C[C@@H](O)C1 (racemic)",
    "value kind": "melting point",
    "measurement": "135 to 138 °C"
  },
  {
    "compound": "CCOC(=O)C1=C[C@@H](OC(CC)CC)[C@H](NC(C)=O)[C@@H](N=[N+]=[N-])C1",
    "value kind": "melting point",
    "measurement": "115 to 117 °C"
  },
  {
    "compound": "O=C(c1cccnc1)N1N=CCC1c1ccco1 (stereo not drawn)",
    "value kind": "melting point",
    "measurement": "91 to 93 °C"
  },
  {
    "compound": "O=S(=O)(c1ccccc1)N1CCC(C(=Nc2ccc(F)cc2)c2ccc(F)cc2)CC1",
    "value kind": "melting point",
    "measurement": "123 to 124 °C"
  },
  {
    "compound": "CN(C)CCC(c1ccncc1)S(=O)(=O)c1ccc(Cl)cc1 (stereo not drawn)",
    "value kind": "melting point",
    "measurement": "91 to 92 °C"
  },
  {
    "compound": "CC(=O)NC(C(=O)O)C(c1ccc(F)cc1)c1ccc(F)cc1 (stereo not drawn)",
    "value kind": "melting point",
    "measurement": "187 °C"
  },
  {
    "compound": "COc1cc2cc(CO)nc(-c3ccnc(-n4nc(-c5cccnc5)c5ccccc5c4=O)c3)c2cc1OC",
    "value kind": "melting point",
    "measurement": "> 250 °C"
  },
  {
    "compound": "CN(C)C(=O)N(C)c1nnc(SCc2ccccc2)s1",
    "value kind": "melting point",
    "measurement": "48 to 51 °C"
  }
]
